# Tested On: human Yes1 enzyme (Homo sapiens, UniProt P07947)
# Construct: made in house
# Sequence (P07947 whole entry): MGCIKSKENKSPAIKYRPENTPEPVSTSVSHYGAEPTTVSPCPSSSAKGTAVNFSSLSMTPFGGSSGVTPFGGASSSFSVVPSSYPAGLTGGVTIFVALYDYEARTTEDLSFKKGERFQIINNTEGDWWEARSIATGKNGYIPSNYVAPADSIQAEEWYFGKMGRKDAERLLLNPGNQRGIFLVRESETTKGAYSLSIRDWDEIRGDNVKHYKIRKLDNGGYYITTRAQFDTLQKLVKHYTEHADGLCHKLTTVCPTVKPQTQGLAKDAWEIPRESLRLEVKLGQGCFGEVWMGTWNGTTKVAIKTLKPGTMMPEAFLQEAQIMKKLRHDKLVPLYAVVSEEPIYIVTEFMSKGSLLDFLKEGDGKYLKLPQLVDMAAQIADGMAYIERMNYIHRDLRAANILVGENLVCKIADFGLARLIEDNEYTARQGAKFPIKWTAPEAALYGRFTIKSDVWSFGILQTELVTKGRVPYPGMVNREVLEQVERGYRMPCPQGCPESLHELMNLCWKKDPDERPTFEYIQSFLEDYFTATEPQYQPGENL
# Procedure Details: Yes1 enzyme inhibitory activity (time-resolved fluorometry, biotinylated peptide phosphorylation)
# Assay type: biochemical
# Experimental Context: biotinylated peptide phosphorylation, read-out: YES_IC50
pIC50: −log10 of the molar value.
Measurement Kind: pIC50

                                   molecule  value_observed
0  Cc1cc(Oc2ccccc2F)ccc1-n1ncc(C(=O)c2cc3cc(F)c(NS(=O)(=O)NC4CCOCC4)cc3[nH]2)c1N            9.17
1  Cc1cc(Oc2ccccc2F)ccc1-n1ncc(C(=O)c2cc3cc(OC(F)F)c(C4CCN(S(C)(=O)=O)CC4)cc3[nH]2)c1N            8.13
2  COc1cc2cc(C(=O)c3cnn(-c4cnc(Oc5ccccc5Cl)cc4C)c3N)[nH]c2cc1NS(C)(=O)=O            8.96
3  Cc1cc2cc(C(=O)c3cnn(-c4cnc(Oc5ccccc5F)cc4C)c3N)[nH]c2cc1NS(=O)(=O)c1cc(F)ccn1            8.60
4  COc1ccnc(S(=O)(=O)Nc2cc3[nH]c(C(=O)c4cnn(-c5ccc(Oc6ccccc6F)cc5C)c4N)cc3cc2C)c1            9.04
5  Cc1cc(Oc2ccccc2Cl)cc(F)c1-n1ncc(C(=O)c2cc3cc(F)c(NS(=O)(=O)C4CC4)cc3[nH]2)c1N            8.05

* * *

# Tested On: human Src enzyme (Homo sapiens)
# Construct: purchased Carna Biosciences, Inc. 08-173
# Sequence (P12931 whole entry): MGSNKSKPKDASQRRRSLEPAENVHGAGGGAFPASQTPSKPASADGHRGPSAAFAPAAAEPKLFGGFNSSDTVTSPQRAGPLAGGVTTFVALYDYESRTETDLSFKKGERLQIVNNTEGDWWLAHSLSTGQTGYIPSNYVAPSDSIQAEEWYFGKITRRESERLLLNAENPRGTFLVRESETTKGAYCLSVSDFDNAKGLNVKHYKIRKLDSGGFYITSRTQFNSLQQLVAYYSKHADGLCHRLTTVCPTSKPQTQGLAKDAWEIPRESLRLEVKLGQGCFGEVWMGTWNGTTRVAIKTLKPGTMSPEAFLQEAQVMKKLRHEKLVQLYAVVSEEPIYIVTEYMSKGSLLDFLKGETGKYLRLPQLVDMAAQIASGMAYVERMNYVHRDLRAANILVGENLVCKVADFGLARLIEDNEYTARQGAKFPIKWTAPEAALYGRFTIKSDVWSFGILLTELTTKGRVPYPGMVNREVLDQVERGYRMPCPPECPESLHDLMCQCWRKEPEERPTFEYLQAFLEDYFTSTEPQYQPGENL
# Procedure Details: Src enzyme inhibitory activity (time-resolved fluorometry, biotinylated peptide phosphorylation)
# Format: biochemical
# Experimental Context: biotinylated peptide phosphorylation, read-out: SRC_IC50
pIC50: −log10 of the molar value.
Assign fulfilled whenever pIC50 does not fall below 7; assign not fulfilled whenever it does.

>>> print(df.to_string())
                                    molecule                        tested_on   answer_label
 0  Cc1cc2cc(C(=O)c3cnn(-c4cnc(Oc5cccc(Cl)c5)cc4C)c3N)[nH]c2cc1NS(=O)(=O)N1CCOCC1  human Src enzyme (Homo sapiens)  not fulfilled
 1  COc1cc2cc(C(=O)c3cnn(-c4ccc(Oc5ccccc5F)cc4C)c3N)[nH]c2cc1NS(=O)(=O)CCCF  human Src enzyme (Homo sapiens)      fulfilled
 2  Cc1cc(Oc2ccccc2F)ccc1-n1ncc(C(=O)c2cc3cc(F)c(N4C(=O)[C@@H]5C[C@@H](O)CN5C4=O)cc3[nH]2)c1N  human Src enzyme (Homo sapiens)      fulfilled
 3  Cc1cc(Oc2ccccc2F)ccc1-n1ncc(C(=O)c2cc3cc(F)c(NS(=O)(=O)NC4COC4)cc3[nH]2)c1N  human Src enzyme (Homo sapiens)      fulfilled
 4  Cc1cc(Oc2ccccc2F)ccc1-n1ncc(C(=O)c2cc3cc(F)c(N4C(=O)[C@@H]5CCCN5C4=O)cc3[nH]2)c1N  human Src enzyme (Homo sapiens)      fulfilled
 5  Cc1cc2cc(C(=O)c3cnn(-c4cnc(Oc5c(F)cccc5F)cc4C)c3N)[nH]c2cc1NS(=O)(=O)c1cncc(Cl)c1  human Src enzyme (Homo sapiens)  not fulfilled
 6  COc1cc(F)cc(S(=O)(=O)Nc2cc3[nH]c(C(=O)c4cnn(-c5cnc(Oc6ccccc6F)cc5C)c4N)cc3cc2C)c1  human Src enzyme (Homo sapiens)  not fulfilled
 7  Cc1cc(Oc2ccccc2F)cc(F)c1-n1ncc(C(=O)c2cc3cc(OC(F)F)c(NS(=O)(=O)C4CC4)cc3[nH]2)c1N  human Src enzyme (Homo sapiens)  not fulfilled
 8  Cc1cc(Oc2c(F)cccc2F)ncc1-n1ncc(C(=O)c2cc3cc(OCC(F)F)c(C4CCN(S(=O)(=O)C5CC5)CC4)cc3[nH]2)c1N  human Src enzyme (Homo sapiens)      fulfilled
 9  Cc1cc(Oc2ccccc2F)ncc1-n1ncc(C(=O)c2cc3cc(OCC(F)F)c(N4CCOCC4)cc3[nH]2)c1N  human Src enzyme (Homo sapiens)      fulfilled
10  Cc1cc2cc(C(=O)c3cnn(-c4cnc(Oc5c(F)cccc5F)cc4C)c3N)[nH]c2cc1NS(=O)(=O)c1cccc(Cl)c1  human Src enzyme (Homo sapiens)  not fulfilled
11  Cc1cc(Oc2ccccc2F)ncc1-n1ncc(C(=O)c2cc3cc(OCC(F)F)c(N4CCN(S(C)(=O)=O)CC4)cc3[nH]2)c1N  human Src enzyme (Homo sapiens)      fulfilled
12  Cc1cc2cc(C(=O)c3cnn(-c4cnc(Oc5ccccc5F)cc4C)c3N)[nH]c2cc1NS(=O)(=O)c1c(F)cc(F)cc1F  human Src enzyme (Homo sapiens)  not fulfilled
13  Cc1cc(Oc2c(F)cccc2F)ncc1-n1ncc(C(=O)c2cc3cc(OC(F)F)c(N4CCOC4=O)cc3[nH]2)c1N  human Src enzyme (Homo sapiens)      fulfilled
14  Cc1cccc(S(=O)(=O)Nc2cc3[nH]c(C(=O)c4cnn(-c5cnc(Oc6ccccc6F)cc5C)c4N)cc3cc2F)n1  human Src enzyme (Homo sapiens)  not fulfilled
15  COc1ccnc(S(=O)(=O)Nc2cc3[nH]c(C(=O)c4cnn(-c5cnc(Oc6ccccc6F)cc5C)c4N)cc3cc2F)c1  human Src enzyme (Homo sapiens)  not fulfilled
16  Cc1cc(Oc2c(F)cccc2F)ncc1-n1ncc(C(=O)c2cc3cc(OC(F)F)c(NS(=O)(=O)N4CCOCC4)cc3[nH]2)c1N  human Src enzyme (Homo sapiens)  not fulfilled
17  Cc1cc(Oc2ccccc2F)ccc1-n1ncc(C(=O)c2cc3cc(OCC(F)F)c(N4CCCC4=O)cc3[nH]2)c1N  human Src enzyme (Homo sapiens)      fulfilled
18  Cc1cc(Oc2ccccc2F)ccc1-n1ncc(C(=O)c2cc3cc(F)c(NS(=O)(=O)CCCF)cc3[nH]2)c1N  human Src enzyme (Homo sapiens)      fulfilled

* * *

# Tested On: human Lck enzyme (Homo sapiens)
# Construct: purchased Carna Biosciences, Inc. 08-170
# Sequence (P06239 whole entry): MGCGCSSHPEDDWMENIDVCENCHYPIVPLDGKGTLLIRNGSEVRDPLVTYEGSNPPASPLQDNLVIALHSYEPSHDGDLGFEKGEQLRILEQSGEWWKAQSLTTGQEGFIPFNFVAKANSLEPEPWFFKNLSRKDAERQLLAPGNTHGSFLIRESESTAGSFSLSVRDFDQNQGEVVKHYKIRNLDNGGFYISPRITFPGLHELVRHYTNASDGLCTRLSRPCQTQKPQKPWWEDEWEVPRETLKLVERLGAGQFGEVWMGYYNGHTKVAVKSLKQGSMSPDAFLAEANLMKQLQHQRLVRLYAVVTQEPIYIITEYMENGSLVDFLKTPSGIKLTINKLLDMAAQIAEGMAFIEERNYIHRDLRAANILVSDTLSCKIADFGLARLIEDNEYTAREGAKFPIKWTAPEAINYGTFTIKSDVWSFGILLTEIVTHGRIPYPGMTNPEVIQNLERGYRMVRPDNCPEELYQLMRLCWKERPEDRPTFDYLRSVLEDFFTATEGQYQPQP
# Procedure Details: Lck enzyme inhibitory activity (time-resolved fluorometry, biotinylated peptide phosphorylation)
# Format: biochemical
# Experimental Context: read-out: LCK_IC50
pIC50: −log10 of the molar value.
Measurement Kind: pIC50

>>> print(df.to_string())
                                    molecule                        tested_on  value_observed
 0  Cc1cc(Oc2ccccc2F)cc(C)c1-n1ncc(C(=O)c2cc3cc(F)c(NS(C)(=O)=O)cc3[nH]2)c1N  human Lck enzyme (Homo sapiens)            6.89
 1  Cc1cc(-n2ncc(C(=O)c3cc4cc(OCC(F)F)c(C5CCN(S(C)(=O)=O)CC5)cc4[nH]3)c2N)ccc1Oc1ccccc1F  human Lck enzyme (Homo sapiens)            7.32
 2  Cc1cc2cc(C(=O)c3cnn(-c4ccc(Oc5ccccc5F)cc4C)c3N)[nH]c2cc1N1C(=O)NC2(CCN(C3COC3)CC2)C1=O  human Lck enzyme (Homo sapiens)            8.26
 3  Cc1cc(Oc2ccccc2F)ccc1-n1ncc(C(=O)c2cc3cc(N4CCOCC4)c(N4CCCC4=O)cc3[nH]2)c1N  human Lck enzyme (Homo sapiens)            8.80
 4  Cc1cc(-n2ncc(C(=O)c3cc4cc(OCC(F)F)c(N5CCC(N6CCOCC6)CC5)cc4[nH]3)c2N)ccc1Oc1ccccc1F  human Lck enzyme (Homo sapiens)            7.74
 5  Cc1cc(-n2ncc(C(=O)c3cc4cc(OC[C@H](O)CO)c(Br)cc4[nH]3)c2N)ccc1Oc1ccccc1F  human Lck enzyme (Homo sapiens)            7.44
 6  Cc1cc(-n2ncc(C(=O)c3cc4cc(OC5CCN(C6CS(=O)(=O)C6)CC5)c(-c5ccccc5F)cc4[nH]3)c2N)ccc1Oc1ccccc1F  human Lck enzyme (Homo sapiens)            6.39
 7  Cc1cc(Oc2ccccc2F)ccc1-n1ncc(C(=O)c2cc3cc(OC4CCN(C(C)C)CC4)c(Cl)cc3[nH]2)c1N  human Lck enzyme (Homo sapiens)            8.08
 8  Cc1cc(Oc2c(F)cccc2F)ncc1-n1ncc(C(=O)c2cc3cc(C4CC4)c(NS(=O)(=O)C4CCOCC4)cc3[nH]2)c1N  human Lck enzyme (Homo sapiens)            7.18
 9  Cc1cc(Oc2c(F)cccc2F)ncc1-n1ncc(C(=O)c2cc3cc(F)c(N4C(=O)NC5(CCOCC5)C4=O)cc3[nH]2)c1N  human Lck enzyme (Homo sapiens)            8.06
10  Cc1cc(-n2ncc(C(=O)c3cc4cc(OCC(F)F)c(N5C(=O)NC(C)(C)C5=O)cc4[nH]3)c2N)ccc1Oc1ccccc1F  human Lck enzyme (Homo sapiens)            7.05
11  Cc1cc2cc(C(=O)c3cnn(-c4cnc(Oc5c(F)cccc5F)cc4C)c3N)[nH]c2cc1NS(=O)(=O)C1CCCC1  human Lck enzyme (Homo sapiens)            6.96
12  Cc1cc2cc(C(=O)c3cnn(-c4cnc(Oc5ccccc5F)cc4C)c3N)[nH]c2cc1C1CCN(S(C)(=O)=O)CC1  human Lck enzyme (Homo sapiens)            8.42
13  CS(=O)(=O)Nc1cc2[nH]c(C(=O)c3cnn(-c4ccc(Oc5cccc(F)c5F)cc4Cl)c3N)cc2cc1F  human Lck enzyme (Homo sapiens)            7.60
14  Cc1ccccc1-c1cc2[nH]c(C(=O)c3cnn(-c4cnc(Oc5c(F)cccc5F)cc4C)c3N)cc2cc1OC1CCN(C2CS(=O)(=O)C2)CC1  human Lck enzyme (Homo sapiens)            7.52
15  Cc1cc(Oc2ccccc2F)cc(F)c1-n1ncc(C(=O)c2cc3cc(OC4CCN(C(C)C)CC4)c(Br)cc3[nH]2)c1N  human Lck enzyme (Homo sapiens)            8.37
16  Cc1cc2cc(C(=O)c3cnn(-c4cnc(Oc5c(F)cccc5F)cc4C)c3N)[nH]c2cc1C1CCN(S(=O)(=O)C2CC2)CC1  human Lck enzyme (Homo sapiens)            7.12
17  Cc1cc(Oc2ccccc2F)ccc1-n1ncc(C(=O)c2cc3cc(F)c(N4CCOCC4)cc3[nH]2)c1N  human Lck enzyme (Homo sapiens)            8.32
18  Cc1cc(-n2ncc(C(=O)c3cc4cc(OC5CCN(C(C)C)CC5)c(NS(C)(=O)=O)cc4[nH]3)c2N)ccc1Oc1ccccc1F  human Lck enzyme (Homo sapiens)            7.19
19  Cc1cc(Oc2ccccc2F)ncc1-n1ncc(C(=O)c2cc3cc(OCC(F)F)c(N4C(=O)NC(C)(C)C4=O)cc3[nH]2)c1N  human Lck enzyme (Homo sapiens)            8.13
20  Cc1cc(-n2ncc(C(=O)c3cc4cc(OC5CCN(C6CS(=O)(=O)C6)CC5)c(-c5ccccc5C)cc4[nH]3)c2N)ccc1Oc1ccccc1F  human Lck enzyme (Homo sapiens)            6.62
21  Cc1cc(Oc2c(F)cccc2F)ncc1-n1ncc(C(=O)c2cc3cc(F)c(N4CCOCC4)cc3[nH]2)c1N  human Lck enzyme (Homo sapiens)            8.89
22  Cc1cc(-n2ncc(C(=O)c3cc4cc(OC5CCN(C(C)C)CC5)c(N5C(=O)N[C@@H](C)C5=O)cc4[nH]3)c2N)ccc1Oc1ccccc1F  human Lck enzyme (Homo sapiens)            7.77
23  Cc1cc(-n2ncc(C(=O)c3cc4cc(OC5CCN(C(C)C)CC5)c(N5CCC(N6CCOCC6)CC5)cc4[nH]3)c2N)ccc1Oc1ccccc1F  human Lck enzyme (Homo sapiens)            8.57
24  Cc1ccccc1Oc1cc(C)c(-n2ncc(C(=O)c3cc4cc(NS(C)(=O)=O)c(F)cc4[nH]3)c2N)cn1  human Lck enzyme (Homo sapiens)            8.29

Taken from patent US10479780B2.
